# IC50 listing for each entry below
- system: mPGES-1 (Homo sapiens (Human))
- Sequence (O14684 whole entry): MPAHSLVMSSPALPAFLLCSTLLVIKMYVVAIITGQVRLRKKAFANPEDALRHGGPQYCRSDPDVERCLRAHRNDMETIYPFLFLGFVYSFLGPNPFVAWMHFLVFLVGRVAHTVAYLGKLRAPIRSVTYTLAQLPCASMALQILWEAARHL
- assay protocol: mPGES-1 enzyme assay (HTRF detection of PGE2)
- Assay type: biochemical
- assay context: Table C comparison of selected benzimidazoles; read-out: Enzym IC50
- Method: Microsomes from Rosetta E. coli bacteria expressing recombinant human mPGES-1 can be derived as described below: Inoculate 5 ml LB with Ampicilin (50 μg/ml) and Chloramphenicol (34 μg/ml) with bacteria from freeze culture. Incubate 8 h at 37° C. with 200 rpm. […] The quantification plate contains also wells with different concentrations of PGE2 as calibration curve for the calculation of the PGE2 concentrations from the HTRF ratio values. […]

compound | system | IC50 [nM]
Cn1c(Nc2cc(CNC(=O)C(C)(C)C)ccc2Cl)nc2cc(C(=O)N[C@H]3CC[C@H](C(F)(F)F)CC3)c(OCC(F)F)cc21 [[drawing 47] of PCT/EP2010/052799, reference compound] | mPGES-1 (Homo sapiens (Human)) | 3
Cn1c(Nc2c(Cl)ccc(CNC(=O)C(C)(C)C)c2Cl)nc2cc(C(=O)N[C@H]3CC[C@H](C(F)(F)F)CC3)c(OCC(F)F)cc21 [drawing 46] | mPGES-1 (Homo sapiens (Human)) | 2
Cn1c(Nc2c(Cl)ccc(CNC(=O)C(C)(C)C)c2Cl)nc2cc(C(=O)Nc3ccc(Br)cc3)c(OCC(F)F)cc21 [drawing 44] | mPGES-1 (Homo sapiens (Human)) | 2
Cn1c(Nc2c(Cl)ccc(CNC(=O)C(C)(C)C)c2Cl)nc2cc(C(=O)NCC3CC3)c(OCC(F)F)cc21 [drawing 48] | mPGES-1 (Homo sapiens (Human)) | 4

----------
- system: mPGES-1 (Homo sapiens (Human))
- assay protocol: A549 cell-based assay (PGE2 formation, IL-1β stimulated, 50% human serum)
- assay context: A549 cells, IL-1β 5 ng/ml, read-out: mPGES-1 inhibitory effect in the cell assay, IC50
pIC50: −log10 of the molar value.
measurement type: pIC50

compound | system | measurement type | comparator | test result
Cn1c(Nc2c(Cl)ccc(CNC(=O)C(O)C(F)(F)F)c2Cl)nc2cc(C(=O)Nc3ccc(F)c(Cl)c3)c(OCC(F)F)cc21 (stereo not shown) | mPGES-1 (Homo sapiens (Human)) | pIC50 | = | 8.70
C[C@H](O)C(=O)NCc1ccc(Cl)c(Nc2nc3cc(C(=O)NCC(F)(F)F)c(OCC(F)F)cc3n2C)c1Cl | mPGES-1 (Homo sapiens (Human)) | pIC50 | = | 7.24
Cn1c(Nc2c(Cl)ccc(CNC(=O)c3ccno3)c2Cl)nc2cc(C(=O)NCC(F)(F)F)c(OCC(F)F)cc21 | mPGES-1 (Homo sapiens (Human)) | pIC50 | = | 6.97
CC(C)(C)C(=O)NCc1ccc(Cl)c(Nc2nc3cc(C(=O)N[C@H]4CC[C@H](C(F)(F)F)CC4)c(F)cc3[nH]2)c1Cl | mPGES-1 (Homo sapiens (Human)) | pIC50 | = | 8.15
Cn1c(Nc2c(Cl)ccc(CNC(=O)C(C)(N)C(F)(F)F)c2Cl)nc2cc(C(=O)Nc3ccc(F)c(Cl)c3)c(OCC(F)F)cc21 (stereo not shown) | mPGES-1 (Homo sapiens (Human)) | pIC50 | > | 9.00
CC(C)(C)C(=O)NCc1ccc(F)c(Nc2nc3cc(C(=O)Nc4ccc(Br)cc4)c(OCC(F)F)cc3n2C2CC2)c1F | mPGES-1 (Homo sapiens (Human)) | pIC50 | = | 8.40
Cn1c(Nc2c(Cl)ccc(CNC(=O)N3CC(F)(F)C3)c2Cl)nc2cc(C(=O)N[C@H]3CC[C@H](C(F)(F)F)CC3)c(OCC(F)F)cc21 | mPGES-1 (Homo sapiens (Human)) | pIC50 | = | 8.15
CC(NC(=O)c1cc2nc(Nc3c(Cl)ccc(CNC(=O)C(C)(C)C)c3Cl)n(C)c2cc1OCC(F)F)C(F)(F)F (stereo not shown) | mPGES-1 (Homo sapiens (Human)) | pIC50 | > | 9.00
Cn1c(Nc2c(Cl)ccc(CNC(=O)C(C)(C)C)c2Cl)nc2cc(C(=O)Nc3ccc(C(F)(F)F)cn3)c(OCC(F)F)cc21 | mPGES-1 (Homo sapiens (Human)) | pIC50 | > | 9.00
CCC(=O)NCc1ccc(Cl)c(Nc2nc3cc(C(=O)Nc4ccc(F)c(Cl)c4)c(OCC(F)F)cc3n2C)c1Cl | mPGES-1 (Homo sapiens (Human)) | pIC50 | = | 8.70
Cn1c(Nc2c(Cl)ccc(CNC(=O)C3(C#N)CC3)c2Cl)nc2cc(C(=O)Nc3ccc(F)c(Cl)c3)c(OCC(F)F)cc21 | mPGES-1 (Homo sapiens (Human)) | pIC50 | = | 8.15
Cn1c(Nc2c(Cl)ccc(CNC(=O)C3(O)CC3)c2Cl)nc2cc(C(=O)Nc3ccc(F)c(Cl)c3)c(OCC(F)F)cc21 | mPGES-1 (Homo sapiens (Human)) | pIC50 | = | 8.40
Cc1ccc(CNC(=O)C(C)(C)C)c(C)c1Nc1nc2cc(C(=O)N[C@H]3CC[C@H](C(F)(F)F)CC3)c(OCC(F)F)cc2n1C | mPGES-1 (Homo sapiens (Human)) | pIC50 | = | 8.30
